Catalogue of cAMP Rel EC50, nM (1% HSA) readings, one per entry.
- SYSTEM UNDER TEST: human glucagon receptor (human) (UniProt P47871)
- Sequence (P47871 26-477): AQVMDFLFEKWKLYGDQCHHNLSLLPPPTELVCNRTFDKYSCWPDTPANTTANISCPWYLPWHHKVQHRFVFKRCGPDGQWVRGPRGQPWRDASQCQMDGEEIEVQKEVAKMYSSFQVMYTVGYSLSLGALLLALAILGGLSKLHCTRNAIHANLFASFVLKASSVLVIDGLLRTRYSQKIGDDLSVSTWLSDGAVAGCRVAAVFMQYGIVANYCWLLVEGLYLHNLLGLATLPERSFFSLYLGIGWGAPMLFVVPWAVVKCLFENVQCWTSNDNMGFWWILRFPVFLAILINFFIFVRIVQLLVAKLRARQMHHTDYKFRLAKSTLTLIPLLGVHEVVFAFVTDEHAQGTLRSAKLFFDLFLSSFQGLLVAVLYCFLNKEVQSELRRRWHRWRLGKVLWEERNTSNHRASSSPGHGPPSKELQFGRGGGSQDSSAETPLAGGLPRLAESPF
- PROCEDURE TEXT: cell-based or functional assay
The figure you give is taken to be in nM; do not add the unit.

Answered examples (2):
Given the binder YXQGTFTSDXSQXLDKKAQXAFIEYLIAGGESSGAPPPSGSEE (non-natural residues, C18 diacid-(γGlu)2 acyl on K, C-terminal amide; synthetic construct; SITE 2: note = 2-Aminoisobutyric Acid; SITE 10: note = 3-(4-Pyridyl)-L-alanine; SITE 13: note = alpha-methyl-leucine; SITE 17: note = Lysine is chemically modified through conjugation of the epsilon-amino group of the Lysine side chain with (gamma-Glu)2-CO-(CH2)16-CO2H; SITE 20:) [Example 963] , what is its reported cAMP Rel EC50, nM (1% HSA)?
900

Given the binder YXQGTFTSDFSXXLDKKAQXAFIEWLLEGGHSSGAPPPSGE (synthetic construct; SITE 2: note = 2-Aminoisobutyric Acid; SITE 12: note = L-ornithine; SITE 13: note = alpha-methyl-leucine; SITE 17: note = Lysine is chemically modified through conjugation of the epsilon-amino group of the Lysine side chain with (2-[2-(2-Amino-ethoxy)-ethoxy]-acetyl)2-(gamma-Glu)) [Example 169] , what is its reported cAMP Rel EC50, nM (1% HSA)?
439

Turning now to a further record.
Given the binder YXQGTXTSDYSIXLDKKAQXAFIEYLEEGGPSSGAPPPS (synthetic construct; SITE 2: note = 2-Aminoisobutyric Acid; SITE 6: note = alpha-methyl-L-phenylalanine; SITE 13: note = alpha-methyl-leucine; SITE 17: note = Lysine is chemically modified through conjugation of the epsilon-amino group of the Lysine side chain with (2-[2-(2-Amino-ethoxy)-ethoxy]-ace)) [Example 394] , what is its reported cAMP Rel EC50, nM (1% HSA)?
1090
